Measured values drawn from PubChem BioAssay for this set.

biological target: Nuclear receptor coactivator 2 (Homo sapiens) (UniProt Q15596); assay: SRC2 coactivator transcriptional activity inhibitors, confirmation, cell-based, luminescence, HEK293, triplicate (AID 652008); conditions: HEK293 GAL4-SRC2 luciferase reporter, at 8.9 µM;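 also: 0% = DMSO-treated cells and 100% = Gossypol at 36 µM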
Sequence (Q15596 whole entry, looked up, the tested form may be a part): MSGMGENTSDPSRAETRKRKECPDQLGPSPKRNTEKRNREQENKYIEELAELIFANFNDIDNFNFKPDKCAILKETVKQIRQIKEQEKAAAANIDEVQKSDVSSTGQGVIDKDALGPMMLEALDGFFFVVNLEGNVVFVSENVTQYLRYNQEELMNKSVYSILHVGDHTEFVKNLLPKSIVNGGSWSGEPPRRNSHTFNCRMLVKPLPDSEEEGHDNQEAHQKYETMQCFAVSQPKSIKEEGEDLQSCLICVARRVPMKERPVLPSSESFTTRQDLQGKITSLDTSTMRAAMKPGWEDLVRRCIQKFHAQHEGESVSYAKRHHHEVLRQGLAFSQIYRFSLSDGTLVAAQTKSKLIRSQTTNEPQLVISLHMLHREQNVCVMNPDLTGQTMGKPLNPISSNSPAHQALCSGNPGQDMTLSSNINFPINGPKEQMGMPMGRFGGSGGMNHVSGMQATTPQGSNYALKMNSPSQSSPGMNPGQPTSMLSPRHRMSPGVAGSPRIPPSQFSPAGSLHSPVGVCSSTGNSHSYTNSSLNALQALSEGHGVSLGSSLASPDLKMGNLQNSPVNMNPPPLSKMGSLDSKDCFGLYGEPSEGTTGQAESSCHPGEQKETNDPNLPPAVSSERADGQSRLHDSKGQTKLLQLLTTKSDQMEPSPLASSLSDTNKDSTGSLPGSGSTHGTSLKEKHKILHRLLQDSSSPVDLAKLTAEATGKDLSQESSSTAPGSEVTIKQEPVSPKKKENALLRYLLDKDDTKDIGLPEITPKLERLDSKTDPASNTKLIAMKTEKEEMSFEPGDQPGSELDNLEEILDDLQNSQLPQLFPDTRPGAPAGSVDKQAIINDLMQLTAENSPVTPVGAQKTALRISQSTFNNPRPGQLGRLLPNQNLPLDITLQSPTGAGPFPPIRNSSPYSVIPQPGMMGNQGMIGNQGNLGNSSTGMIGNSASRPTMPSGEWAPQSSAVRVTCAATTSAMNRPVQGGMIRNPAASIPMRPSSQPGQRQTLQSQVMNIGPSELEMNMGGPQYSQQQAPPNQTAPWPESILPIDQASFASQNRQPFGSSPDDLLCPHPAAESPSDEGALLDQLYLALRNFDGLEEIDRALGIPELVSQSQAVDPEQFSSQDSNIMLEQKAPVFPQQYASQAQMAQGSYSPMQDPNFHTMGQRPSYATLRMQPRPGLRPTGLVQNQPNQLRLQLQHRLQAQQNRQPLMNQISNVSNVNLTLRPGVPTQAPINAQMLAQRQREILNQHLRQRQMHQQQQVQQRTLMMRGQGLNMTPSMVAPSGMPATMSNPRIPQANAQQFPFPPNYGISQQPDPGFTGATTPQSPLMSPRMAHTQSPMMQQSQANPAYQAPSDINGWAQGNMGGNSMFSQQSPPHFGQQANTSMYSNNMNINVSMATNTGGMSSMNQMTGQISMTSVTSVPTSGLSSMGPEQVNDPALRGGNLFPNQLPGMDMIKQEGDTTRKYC
Activity calls are given as the source filed them.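 The calls were made as follows: active = mean inhibition above 46.5%, the solvent-only control mean plus 3 SD; inactive = the rest.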
Can you answer with just one of these options? 1.0 for active, 0.0 for inactive

// query Record request — test call for COc1cc(CC(C)N)c(OC)cc1I (stereo not drawn)
// result 0.0

// query How was O=C(c1ccc(Cl)cc1)C1CCCN(Cc2cccc3ncccc23)C1 (stereo not drawn) classified in this test?
// result 0.0

// query Outcome logged for CCC(C)C1NC(=O)C(NC(=O)C(CC(C)C)N(C)C(=O)C2CCCN2C(=O)C(C)O)C(C)OC(=O)C(Cc2ccc(OC)cc2)N(C)C(=O)C2CCCN2C(=O)C(CC(C)C)NC(=O)[C@H](C)C(=O)[C@H](C(C)C)OC(=O)CC1O (stereo partly drawn) in this assay:
// result 1.0

// query // return assay outcome for FC(F)(F)c1ccccc1N1CC1c1ccncc1 (stereo not drawn)
// result 0.0

// query Record lookup: outcome of this test for Cc1nc2cc(-c3cccc(F)c3)nn2c(C)c1CCC(=O)N1CCC2(CC1)OCCO2 ?
// result 0.0

// query # lookup: test call for CC(=O)OC1(C)CC(C)C(=O)C(C(O)CC2CC(=O)NC(=O)C2)C1 (stereo not drawn)
// result 1.0

// query Which result was noted for this molecule in the test: CC12CCC3C(CCC4(O)CC(O)CCC34C=NO)C1(O)CCC2C1=COC(=O)C1 (stereo not drawn)
// result 0.0

// query Test call, this molecule: COc1ccc(CC2C(=O)NC(C)C(=O)N(C)C3C(=O)N(C)C(Cc4ccc(O)c(c4)Oc4ccc(cc4)C3O)C(=O)NC(C)C(=O)NC(C)C(=O)N2C)cc1 (stereo not drawn)
// result 1.0

* * *

system: transactivating tegument protein VP16 (Human herpesvirus 1); test: VP16 transactivation reporter inhibitors, counter-screen for SRC2 inhibitor project, cell-based, luminescence, single concentration (AID 652007); settings: cell-based VP16 transactivation luciferase reporter, at 8.9 µM
The source made the active and inactive calls. No stated cut-off is given here; in the data, active means inhibition above about 36%; inactive means the rest.
Response enum: True (active), False (inactive)

// query Short answer needed: outcome of this test for Cc1ccc(-c2cc(-c3ccccc3)cc(-c3ccccc3)[n+]2-c2ccccc2)cc1 ?
// result True

// query Per the assay record, what outcome was assigned to C[C@]12CCC3C(CCC4=CC(O)CC[C@@]43/C=N/O)C1(O)CCC2C1=CC(=O)OC1 (some centres undefined) ?
// result True

// query Call for entry COc1ccc(CC2C(=O)NC(C)C(=O)N(C)C3C(=O)N(C)C(Cc4ccc(O)c(c4)Oc4ccc(cc4)C3O)C(=O)NC(C)C(=O)NC(C)C(=O)N2C)cc1 (centres undefined) :
// result True

// query Returns: the outcome recorded for O=[N+]([O-])c1ccc(N2CCCC(C(F)(F)F)C2)c2ccncc12 (centres undefined) in this assay.
// result False

// query Tell me the recorded outcome of this test for CCC(C)C1NC(=O)C(NC(=O)C(CC(C)C)N(C)C(=O)C2CCCN2C(=O)C(C)O)C(C)OC(=O)C(Cc2ccc(OC)cc2)N(C)C(=O)C2CCCN2C(=O)C(CC(C)C)NC(=O)[C@H](C)C(=O)[C@H](C(C)C)OC(=O)CC1O (some centres undefined) .
// result True

// query Could you please tell me the result logged for CCOC(=O)C1(CCc2ccccc2)CCN(Cc2cccc3cnccc23)CC1 in this assay?
// result False

// query # outcome recorded in this test, key = O=C1C(=O)c2ccccc2-c2ccccc21
// result True

// query Short answer needed: outcome of this test for c1cncc(-c2ccc3n2Cc2cnnn2-c2ccccc2-3)c1 ?
// result False

// query What was the test verdict on CC(=O)OC(C)(C)/C=C/C(=O)C(C)(O)C1[C@H](O)C[C@@]2(C)C3CC=C4C(CC[C@@H](O)C4(C)C)[C@]3(CO)C(=O)C[C@]12C (some centres undefined) ?
// result False
